protocol_summary: human hepatoma cell viability loss – ATP luminescence, cytotoxicity control for P. falciparum antimalarial project, primary screen (AID 2303);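 also: 0% = DMSO wells and 100% = digitonin-killed cells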
condition_summary: HepG2 viability, 24-48 h, at 10 µM, stronger effect = higher value
The source made the active and inactive calls.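 The calls were made as follows: active = inhibition above 50%; inactive = the rest.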
reported_metric: inhibition

Sample answers from the record:
molecule=Cc1cnc(Nc2ccccc2)nc1N[C@@H](CCCN)C(=O)Nc1ccccc1 result="-2% (inactive)"
molecule=COc1ccc(CCCON2C(N)=NC(N)=NC2(C)C)cc1 result="61% (active)"
molecule=COc1cccc(-c2cnc(N)c(-c3nc4cc(Cl)c(F)cc4[nH]3)c2)c1 result="37% (inactive)"
molecule="CC(C)c1ccc(NC(=O)NC2CCN(CCCCCN(C)C(=O)/C=C/c3ccc(Cl)c(Cl)c3)C2)cc1 (stereo not given)" result="28% (inactive)"
molecule="CCCC(CNCc1cccc(SC(F)(F)F)c1)CNc1cc(=O)c2ccccc2[nH]1 (stereo not given)" result="5% (inactive)"
molecule=O=C(NCc1cccc(CN2CCOCC2)c1)c1cc(Br)cc(N2CCN(c3ccncc3)CC2)c1 result="25% (inactive)"
molecule=CN(C)CCN(C)Cc1ccc(-c2ccc(NC(=O)c3cccc(Cl)c3)cc2)cc1 result="50% (active)"
molecule="Cc1cc(C(=O)Nc2ccc3c(c2)CCN3C2CCN(Cc3ccc4nsnc4c3)C2)no1 (stereo not given)" result="-1% (inactive)"

List reported inhibition for each of these molecules:
1. c1ccc2c(NCCCCCCCCNc3ccnc4ccccc34)ccnc2c1
2. O=[N+]([O-])c1ccc(C(O)CNCCc2ccccc2)cc1OCc1ccccc1 (stereo not given)
3. O=C(/C=C/c1ccc(Cl)c(Cl)c1)NC1CCC(CN2CCC(c3nc4ccc(O)cc4[nH]3)CC2)CC1 (stereo not given)
4. Cc1cccc2[nH]c(-c3ccc(-c4cccc(NC(=O)C(C)CN5CCN(C)CC5)c4)cc3)nc12 (stereo not given)
5. Cc1cc(N[C@@H](Cc2ccccc2)C(=O)NCc2cccc(F)c2)nc(NCCOc2ccccc2)n1
6. Cc1cc(Nc2ccc(C)c(C)c2)n2nc(C)nc2n1

1. 57% (active)
2. -6% (inactive)
3. 41% (inactive)
4. 5% (inactive)
5. 0% (inactive)
6. 10% (inactive)

----------
protocol_summary: antimalarial activity against Dd2 strain (AID 2302);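 also: 0% = DMSO untreated growth and 100% = chloroquine plus artemisinin killed control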
condition_summary: P. falciparum Dd2 in RBCs, LDH growth readout, 72 h; at 2 µM; stronger effect = higher value
Activity calls are given as the source filed them.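 How the source made its calls: active means growth inhibition above 50% at the single 2 µM test dose, taken to imply half-maximal potency below 2 µM; inactive means the rest.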
reported_metric: growth inhibition

List reported growth inhibition for each of these molecules:
1. O=C(c1ccc(O)c(-c2cc(Cl)cc(Cl)c2)c1)N1CCCC1
2. CN(C)CCCOc1cc(NC(=O)Nc2ccc(-c3ccncc3)c3ccccc23)ccc1I
3. N#Cc1cccc(Nc2cc(C(F)(F)F)nc(Nc3ccccc3)n2)c1

1. 57% (active)
2. 97% (active)
3. 17% (inactive)

List reported growth inhibition for each of these molecules:
1. CCc1nc2c(cnn2CC)c(NC2CCOCC2)c1CNC(=O)c1ccoc1C
2. COC(=O)/C=C/c1ccc(CCC(C)NCC(O)c2cccc(Cl)c2)cc1 (configuration not stated)
3. N=C(N)c1ccc2nc(SCc3ccccc3)[nH]c2c1
4. O=C1CCCN1CCCNCc1ccc(-c2ccc(-c3nc4ccc(F)cc4[nH]3)s2)cc1

1: 87% (active); 2: 77% (active); 3: 100% (active); 4: 91% (active)

Measured values drawn from PubChem BioAssay for this set.
